Below, each entry is listed with its recorded loss in binding relative to WT.
TARGET_OR_TEST_SYSTEM: T1, full-length human p75 neurotrophin receptor fused at the cytoplasmic C-terminus to GFP (human, UniProt P08138 29-427)
T1 construct: As query against the GFP-tagged library it carried the opposite colour tag (mCherry); kept as one molecule; also called p75^NTR; NGFR; source: HEK293 suspension cells, transiently transfected, on cells; not shown: GFP, C-terminal, kept
T1 sequence (looked up): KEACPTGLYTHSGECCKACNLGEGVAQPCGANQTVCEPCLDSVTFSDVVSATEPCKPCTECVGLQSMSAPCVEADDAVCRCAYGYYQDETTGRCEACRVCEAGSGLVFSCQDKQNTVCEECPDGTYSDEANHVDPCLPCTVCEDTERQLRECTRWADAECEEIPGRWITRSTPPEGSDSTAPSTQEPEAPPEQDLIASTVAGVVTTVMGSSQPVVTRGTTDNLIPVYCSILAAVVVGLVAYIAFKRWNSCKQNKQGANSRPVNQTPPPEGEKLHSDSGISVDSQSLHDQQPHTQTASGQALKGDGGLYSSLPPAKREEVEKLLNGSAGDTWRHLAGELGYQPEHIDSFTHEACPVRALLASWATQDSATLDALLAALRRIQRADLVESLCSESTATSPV
EXPERIMENT_NOTES: flow cytometry on cells; cell-cell conjugates: HEK293F cells expressing 92 B7-1–mCherry point mutants (IgV domain) against HEK293F cells expressing CTLA-4–GFP, CD28-GFP or p75NTR-GFP; percent of WT binding
MEASUREMENT_CONDITIONS: partners not purified

Consider the reported loss in binding relative to WT for these binders:
hB7-1 I36D–mCherry (ligand, human, UniProt P33681 35-288, looked up, human B7-1 (CD80), point mutant in the IgV domain; source: HEK293F, transfected, on cells) VDHVTKEVKEVATLSCGHNVSVEELAQTRIYWQKEKKMVLTMMSGDMNIWPEYKNRTIFDITNNLSIVILALRPSDEGTYECVVLKYEKDAFKREHLAEVTLSVKADFPTPSISDFEIPTSNIRRIICSTSGGFPEPHLSWLENGEELNAINTTVSQDPETELYAVSSKLDFNMTTNHSFMCLIKYGHLRVNQTFNWNTTKQEHFPDNLLPSWAITLISVNGIFVICCLTYCFAPRCRERRRNERLRRESVRPV	> 25%
hB7-1 K43D–mCherry (ligand, human, UniProt P33681 35-288, looked up, human B7-1 (CD80), point mutant in the IgV domain; source: HEK293F, transfected, on cells) VIHVTKEVDEVATLSCGHNVSVEELAQTRIYWQKEKKMVLTMMSGDMNIWPEYKNRTIFDITNNLSIVILALRPSDEGTYECVVLKYEKDAFKREHLAEVTLSVKADFPTPSISDFEIPTSNIRRIICSTSGGFPEPHLSWLENGEELNAINTTVSQDPETELYAVSSKLDFNMTTNHSFMCLIKYGHLRVNQTFNWNTTKQEHFPDNLLPSWAITLISVNGIFVICCLTYCFAPRCRERRRNERLRRESVRPV	> 25%

Please examine the following record next.
Q: Could you please provide reported loss in binding relative to WT for hB7-1 K40D–mCherry (ligand, human, UniProt P33681 35-288, looked up, human B7-1 (CD80), point mutant in the IgV domain; printed once as K40D and once as Y40D; also called Y40D; source: HEK293F, transfected, on cells) VIHVTDEVKEVATLSCGHNVSVEELAQTRIYWQKEKKMVLTMMSGDMNIWPEYKNRTIFDITNNLSIVILALRPSDEGTYECVVLKYEKDAFKREHLAEVTLSVKADFPTPSISDFEIPTSNIRRIICSTSGGFPEPHLSWLENGEELNAINTTVSQDPETELYAVSSKLDFNMTTNHSFMCLIKYGHLRVNQTFNWNTTKQEHFPDNLLPSWAITLISVNGIFVICCLTYCFAPRCRERRRNERLRRESVRPV ? Thanks!
Ans: > 25%

Source of measurements: paper PMC9663165
